Origin of the recorded values: patent US20240199745A1

target_under_test: human EGFR (huEGFR) over-expressed on mcl-1-/- mouse embryonic fibroblasts (human, UniProt P00533 25-1210)
experiment: cell-based or functional assay
Parameter huEGFR+ mcl-1-/- MEF EC50: see the listing below.
Entry rule: numbers only, all in nM.

Query :: Quick check: huEGFR+ mcl-1-/- MEF EC50 of AbA-LB (antibody, human IgG1, kappa, V domains shown, synthon LB on reduced interchain cysteines; average DAR 2.4 per ADC) VH: EVQLQESGPGLVKPSQTLSLTCTVSGYSISRDFAWNWIRQPPGKGLEWMGYISYNGNTRYQPSLKSRITISRDTSKNQFFLKLNSVTAADTATYYCVTASRGFPYWGQGTLVTVSS VL: DIQMTQSPSSMSVSVGDRVTITCHSSQDINSNIGWLQQKPGKSFKGLIYHGTNLDDGVPSRFSGSGSGTDYTLTISSLQPEDFATYYCVQYAQFPWTFGGGTKLEIKR ?
Result :: 27

Query :: Continue with AbG-ZZ (antibody, human IgG1, kappa, V domains shown, synthon ZZ on reduced interchain cysteines; average DAR 1.4 per ADC) VH: EVQLQESGPGLVKPSQTLSLTCTVSGYSISNDFAWNWIRQLPGKGLEWMGYISYKGNTRYQPSLKSRITISRDTSKNQFFLKLNSVTAADTATYYCVTASRGLPYWGQGTLVTVSS VL: DIQMTQSPSSMSVSVGDRVTITCHSSQDITYNIGWLQQKPGKSFKGLIYHGANLDDGVPSRFSGSGSGTDYTLTISSLQPEDFATYYCVQYDEFPWTFGGGTKLEIKR
Result :: 68

Query :: Continue with AbA-TX (antibody, human IgG1, kappa, V domains shown, synthon TX on reduced interchain cysteines; average DAR 2.8 per ADC) VH: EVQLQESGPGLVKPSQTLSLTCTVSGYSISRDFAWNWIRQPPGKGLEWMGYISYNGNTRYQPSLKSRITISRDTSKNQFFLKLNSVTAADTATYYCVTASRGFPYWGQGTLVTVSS VL: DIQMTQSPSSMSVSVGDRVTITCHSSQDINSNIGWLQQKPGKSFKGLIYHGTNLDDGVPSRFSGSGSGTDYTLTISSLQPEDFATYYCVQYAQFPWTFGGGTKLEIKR
Result :: 16
